B1: SOAT1 (parent)
chain: VYYIFERLCAPLFRNIKQEPFSAR

# Variants of: B1
# Assay protocol: protein stability index of a GFP-peptide fusion (GPS, HEK-293T) (PSI 1-6); higher = more stable;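 note: lentivirally expressed fusions sorted by FACS into six bins by GFP to DsRed ratio, PSI derived from sequencing read proportions per bin multiplied by bin number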
# Study conditions: c terminus: a fixed tail appended
Overview of recorded protein stability index for various variants
# print the numeric value only

Worked cases, protein stability index given:
# input variant: `F5S` ; wanted: its protein stability index
1.97

Then what about the variant `L12N` ?
1.98

Then what about the variant `N15M` ?
2.01

Then what about the variant `I4R` ?
3.07

Then what about the variant `C9P` ?
3.02

New cases:
# input variant: `L8T` ; wanted: its protein stability index
2

Then what about the variant `E6C` ?
3.08

Then what about the variant `F21W` ?
3.02

Then what about the variant `F5D` ?
1.95

Then what about the variant `Q18M` ?
2.92

Then what about the variant `K17E` ?
3.03

Then what about the variant `C9H` ?
2.02

src = the supplement of paper PMC10567573
